- Test system: SW-620 colon
- experiment: NCI tumour cell line growth inhibition, 48 h
Reported TGI values follow for various compounds
quantity.kind: TGI

{"columns": ["compound", "tested.target", "value.measured"],
 "data": [
  ["Cc1cc(C)c(S(=O)(=O)N2CCCN(S(=O)(=O)c3c(C)cc(C)cc3C)OCCCO2)c(C)c1", "SW-620 colon", "> 100 µM"],
  ["Cc1cccc(C)c1CO", "SW-620 colon", "> 100 µM"],
  ["Cc1n[nH]c(=O)n1/N=C/c1ccc(F)cc1", "SW-620 colon", "> 100 µM"],
  ["CC1(C)CCc2c(c(N=Nc3ccc(S(N)(=O)=O)cc3)c3ccccc3c2O)O1", "SW-620 colon", "> 100 µM"],
  ["COc1cccc(/C=C/[N+](=O)[O-])c1", "SW-620 colon", "4.27 µM"],
  ["CC(=O)[C@@H]1C/C(=C\\OCc2ccccc2)O[C@H]1C", "SW-620 colon", "> 100 µM"],
  ["CC(C)[O-].CC(C)[O-].O=C1C=C([O-])C(=O)c2ccccc21.O=C1C=C([O-])C(=O)c2ccccc21.[Ti+4]", "SW-620 colon", "> 100 µM"],
  ["CNC(=S)NC(=O)c1c(Cl)n(C(=O)OC(C)(C)C)c2ccccc12", "SW-620 colon", "> 100 µM"],
  ["Cc1ccc2c(-c3ccnc(Nc4ccccc4)n3)c(-c3ccc(F)cc3)nn2n1", "SW-620 colon", "> 25 µM"],
  ["CC(C)(C)OCC1NC(=O)[C@@H]2Cc3c([nH]c4ccccc34)C(c3ccccc3)N2C1=O (some centres not stated)", "SW-620 colon", "> 50 µM"],
  ["COc1ccc(/C=C2\\CN(C)C/C(=C\\c3ccc(OC)cc3)C2=O)cc1", "SW-620 colon", "> 100 µM"],
  ["C=C(C#N)C1OCC2OC(C)(C)OC21 (configuration not stated)", "SW-620 colon", "39.6 µM"]
]}

###

- System: SK-MEL-5 melanoma
- experiment: NCI tumour cell line growth inhibition, 48 h
quantity.kind: TGI

{"columns": ["molecule", "quantity.kind", "value.measured"],
 "data": [
  ["O=c1ccs[nH]1", "TGI", "46.5 µM"],
  ["CC(C)[O-].CC(C)[O-].O=C1C=C([O-])C(=O)c2ccccc21.O=C1C=C([O-])C(=O)c2ccccc21.[Ti+4]", "TGI", "> 66.8 µM"],
  ["O=c1cc(N2CCN(CCCCCOc3cc(O)c4c(=O)cc(-c5ccccc5)oc4c3)CC2)c2ccccc2o1", "TGI", "> 100 µM"],
  ["C#CCOCn1cnc2c(Sc3c([N+](=O)[O-])ncn3C)ncnc21", "TGI", "> 100 µM"],
  ["COc1cc(/C=C2\\N=C(c3ccccc3)N(c3nc4cc(C)c(C)cc4s3)C2=O)ccc1O", "TGI", "> 100 µM"],
  ["Nc1nc2c(c(=O)[nH]1)C(c1ccccc1)CC(=O)N2 (stereo not drawn)", "TGI", "> 100 µM"],
  ["CNC/C(Cl)=N/S(=O)(=O)c1ccc(C)cc1", "TGI", "36.7 µM"],
  ["CC1C/C(=C\\c2ccc(OC(=O)C(C)(C)C)cc2)C(=O)/C(=C/c2ccc(OC(=O)C(C)(C)C)cc2)C1 (stereo not drawn)", "TGI", "> 100 µM"],
  ["C=C1C(=O)O[C@H]2[C@H]1CC/C(COC(=O)C(=O)c1cn(C)c3ccc(Cl)cc13)=C\\CC[C@@]1(C)O[C@@H]21", "TGI", "2.91 µM"],
  ["NC[C@H]1Nc2ccccc2[C@@H](O)C1O (stereo partly drawn)", "TGI", "> 100 µM"],
  ["O=[N+]([O-])c1ccc(N=Nc2c(O)ccc3ccccc23)c([N+](=O)[O-])c1", "TGI", "> 100 µM"],
  ["COc1ccc(-c2cc(=O)c3ccccc3o2)cc1N", "TGI", "> 100 µM"],
  ["CC(O)c1cc2c(s1)C(=O)c1ccsc1C2=O (stereo not drawn)", "TGI", "0.0198 µM"],
  ["Cc1c(S(=O)(=O)O)ccc(N=Nc2c(O)c(C(=O)O)cc3ccccc23)c1Cl", "TGI", "> 100 µM"],
  ["O=C1c2ccccc2C(=O)N1CC1S(=O)(=O)OCCOS1(=O)=O", "TGI", "> 100 µM"],
  ["CN(C)CCCNc1ccc2c(=O)n(CCN(C)C)c(=O)n3c4ccccc4c(=O)c1c23", "TGI", "2.19 µM"],
  ["CCOC(=O)/C(=C\\c1ccc(N(CCC#N)CCC#N)cc1)NC(=O)c1cc([N+](=O)[O-])ccc1Cl", "TGI", "> 100 µM"],
  ["COc1cc(S(=O)(=O)Nc2nc(-c3ccc(N4C(=O)/C(=C/C=C/c5ccccc5)N=C4c4ccccc4)cc3)cs2)ccc1Cl", "TGI", "> 100 µM"],
  ["O=S(CC1(O)CCCCC1)c1ccccc1 (stereo not drawn)", "TGI", "> 100 µM"],
  ["C=C(NC(=O)C(=C)NC(=O)c1csc(C2=NC3c4csc(n4)C4NC(=O)c5csc(n5)C(C(C)(O)C(C)O)NC(=O)C5CSC(=N5)C(=CC)NC(=O)C(C(C)O)NC(=O)c5csc(n5)C3(CC2)NC(=O)C(C)NC(=O)C(=C)NC(=O)C(C)NC(=O)C(C(C)CC)NC2C=Cc3c(C(C)O)cc(nc3C2O)C(=O)OC4C)n1)C(N)=O (stereo not drawn)", "TGI", "19.8 µM"],
  ["C[C@@H](O)[C@H](NC(=O)N[C@@H](CC(N)=O)c1nc([C@@H](N)CO)no1)C(=O)O", "TGI", "> 100 µM"],
  ["Cc1ccc2c(-c3ccnc(Nc4ccccc4)n3)c(-c3ccc(F)cc3)nn2n1", "TGI", "11.4 µM"],
  ["O=C(c1ccccc1)c1c(-c2ccccc2)sc2nc3ccccc3nc12", "TGI", "> 100 µM"],
  ["COc1ccc(S(=O)(=O)NC(CCC(=O)NN)C(=O)NN)cc1 (stereo not drawn)", "TGI", "> 100 µM"],
  ["C1CSCCSCCSCCSC1", "TGI", "> 100 µM"],
  ["Cc1occc1C(=S)Nc1ccc(Cl)c(C(=O)OC(C(C)C)C(C)C)c1", "TGI", "32 µM"],
  ["CC1=CC[C@H](C(C)C)C(C(O)[C@@H](C)O[Si](c2ccccc2)(c2ccccc2)C(C)(C)C)C1=O (stereo partly drawn)", "TGI", "33.7 µM"],
  ["COc1ccc(N2C(=O)[C@H]3[C@H]4CC(C(C)(C)C)CC[C@H]4c4c(n(C)c5ccccc45)[C@H]3C2=O)cc1 (stereo partly drawn)", "TGI", "> 100 µM"]
]}
